# Test system: HCT-116 cell line
# Procedure text: Inhibition of cell growth, tetrazolium salt (MTT) assay
# Type: cell-based
# Recorded conditions: Homo sapiens, HCT-116, 120 h, first HCT-116 column (c4); MTT, three to five days; read-out: HCT-116 IC50
pIC50: −log10 of the molar value. Structures can show the parent of a compound that is named as a salt.
Property measured: pIC50

Compound: CNc1ccc(S(=O)(=O)N2CCC(Nc3nc(N)c(C(=O)c4c(F)cccc4F)s3)CC2)cn1
pIC50: 6.74
--
Compound: Nc1nc(NC2CCN(S(=O)(=O)CCn3cccc3)CC2)sc1C(=O)c1c(F)cccc1F [Example K34, Trifluoroacetic Acid Salt]
pIC50: 6.55
--
Compound: CN(C)CCN(C)Cc1ccc(S(=O)(=O)N2CCC(Nc3nc(N)c(C(=O)c4c(F)cccc4F)s3)CC2)cc1 [Example J9, Hydrochloride Salt]
pIC50: 6.89
--
Compound: CN1CCC(Oc2ccc(S(=O)(=O)N3CCC(Nc4nc(N)c(C(=O)c5c(F)cccc5F)s4)CC3)cn2)CC1 [Example H14, Hydrochloride]
pIC50: 7.40
--
Compound: Nc1nc(NC2CCN(S(=O)(=O)c3ccc(N4CCC[C@H](CO)C4)nc3)CC2)sc1C(=O)c1c(F)cccc1F
pIC50: 6.92
--
Compound: CN(C)CCOc1ccc(S(=O)(=O)N2CCC(Nc3nc(N)c(C(=O)c4c(F)cccc4F)s3)CC2)cn1 [Example H3, Hydrochloride]
pIC50: 7.29
--
Compound: CN(C)CCCc1ccc(S(=O)(=O)N2CCC(Nc3nc(N)c(C(=O)c4c(F)cccc4F)s3)CC2)cc1
pIC50: 6.70
--
Compound: Nc1nc(NC2CCN(S(=O)(=O)c3ccc(OCCN4CCCC4)nc3)CC2)sc1C(=O)c1c(F)cccc1F [Example H5, Trifluoroacetic Acid Salt]
pIC50: 7.15
--
Compound: Nc1nc(NC2CCN(S(=O)(=O)CCCNCc3ccccc3F)CC2)sc1C(=O)c1c(F)cccc1F
pIC50: 7.05

1 = C[C@@H](NCCC(=O)N1CCC(Nc2nc(N)c(C(=O)c3c(F)cccc3F)s2)CC1)c1ccccc1 [Example U1, Trifluoroacetic Acid Salt]
2 = Cc1cc(C)cc(CC(=O)N2CCC(Nc3nc(N)c(C(=O)c4c(F)cccc4F)s3)CC2)c1
3 = Cn1ccnc1-c1ccc(S(=O)(=O)N2CCC(Nc3nc(N)c(C(=O)c4c(F)cccc4F)s3)CC2)cn1 [Example I3, Trifluoroacetic Acid Salt]
4 = Nc1nc(NC2CCN(S(N)(=O)=O)CC2)sc1C(=O)c1c(F)cccc1F
Request: Given 4 compounds, produce a descending ranking by pIC50. Sort the labels as requested; that list is your answer.
Result: 2, 3, 4, 1
(2: 7.22, 3: 6.80, 4: 6.24, 1: 6.04)

====

# Tested on: HCT-116 cell line
# Procedure text: Inhibition of cell growth, tetrazolium salt (MTT) assay
# Type: cell-based
# Recorded conditions: 0.1 μM compound; HCT-116; Table 3
Below: a set of entries, each annotated with reported HCT-116 % Inhibition at 0.1 μM.
Just the number please, in %, no unit attached.

Compound: COC(=O)c1sccc1S(=O)(=O)N1CCC(Nc2nc(N)c(C(=O)c3c(F)cccc3F)s2)CC1
System name: HCT-116 cell line
HCT-116 % Inhibition at 0.1 μM / %: 23
//
Compound: Nc1nc(NC2CCN(S(=O)(=O)/C=C/c3ccccc3)CC2)sc1C(=O)c1c(F)cccc1F
System name: HCT-116 cell line
HCT-116 % Inhibition at 0.1 μM / %: 4
//
Compound: COc1ccc(S(=O)(=O)N2CCC(Nc3nc(N)c(C(=O)c4c(F)cccc4F)s3)CC2)cc1
System name: HCT-116 cell line
HCT-116 % Inhibition at 0.1 μM / %: 23
//
Compound: CCCCOc1ccc(C(C)(C)CC(C)(C)C)cc1S(=O)(=O)N1CCC(Nc2nc(N)c(C(=O)c3c(F)cccc3F)s2)CC1
System name: HCT-116 cell line
HCT-116 % Inhibition at 0.1 μM / %: 16

Request: Give me measured HCT-116 % Inhibition at 0.1 μM, please, for this compound: Nc1nc(NC2CCN(S(=O)(=O)c3ccc(O)c(C(=O)O)c3)CC2)sc1C(=O)c1c(F)cccc1F
Result: 14

Request: Give me measured HCT-116 % Inhibition at 0.1 μM, please, for this compound: Nc1nc(NC2CCN(S(=O)(=O)c3ccc(Oc4ccccc4)cc3)CC2)sc1C(=O)c1c(F)cccc1F
Result: 10

Request: Give me measured HCT-116 % Inhibition at 0.1 μM, please, for this compound: Nc1nc(NC2CCN(S(=O)(=O)c3ccc([N+](=O)[O-])cc3)CC2)sc1C(=O)c1c(F)cccc1F
Result: 19

Request: Give me measured HCT-116 % Inhibition at 0.1 μM, please, for this compound: CC(C)c1ccc(S(=O)(=O)N2CCC(Nc3nc(N)c(C(=O)c4c(F)cccc4F)s3)CC2)cc1
Result: 3

Request: Give me measured HCT-116 % Inhibition at 0.1 μM, please, for this compound: Nc1nc(NC2CCN(S(=O)(=O)c3ccc(-c4ccccc4)cc3)CC2)sc1C(=O)c1c(F)cccc1F
Result: 6

Request: Give me measured HCT-116 % Inhibition at 0.1 μM, please, for this compound: Nc1nc(NC2CCN(S(=O)(=O)c3c(Cl)cc(C(F)(F)F)cc3Cl)CC2)sc1C(=O)c1c(F)cccc1F
Result: 17

Request: Give me measured HCT-116 % Inhibition at 0.1 μM, please, for this compound: Nc1nc(NC2CCN(S(=O)(=O)c3cccc4ccccc34)CC2)sc1C(=O)c1c(F)cccc1F [Example P1]
Result: 9

Request: Give me measured HCT-116 % Inhibition at 0.1 μM, please, for this compound: CC(C)S(=O)(=O)N1CCC(Nc2nc(N)c(C(=O)c3c(F)cccc3F)s2)CC1
Result: 26

Request: Give me measured HCT-116 % Inhibition at 0.1 μM, please, for this compound: Nc1nc(NC2CCN(S(=O)(=O)c3c(F)cccc3F)CC2)sc1C(=O)c1c(F)cccc1F
Result: 9

Request: Give me measured HCT-116 % Inhibition at 0.1 μM, please, for this compound: N#Cc1cccc(S(=O)(=O)N2CCC(Nc3nc(N)c(C(=O)c4c(F)cccc4F)s3)CC2)c1
Result: 21

Request: Give me measured HCT-116 % Inhibition at 0.1 μM, please, for this compound: CC(=O)Nc1nc(C)c(S(=O)(=O)N2CCC(Nc3nc(N)c(C(=O)c4c(F)cccc4F)s3)CC2)s1
Result: 18

Request: Give me measured HCT-116 % Inhibition at 0.1 μM, please, for this compound: N#Cc1c(Cl)cccc1Oc1ccc(S(=O)(=O)N2CCC(Nc3nc(N)c(C(=O)c4c(F)cccc4F)s3)CC2)cc1
Result: 16

Request: Give me measured HCT-116 % Inhibition at 0.1 μM, please, for this compound: N#Cc1ccc(S(=O)(=O)N2CCC(Nc3nc(N)c(C(=O)c4c(F)cccc4F)s3)CC2)c(Cl)c1
Result: 13
